Source listed as ChEMBL document CHEMBL1201862.

- System: T47D
- Experimental details: NCI tumour cell line growth inhibition, 48 h
Calls of active or inactive are those of the source. No stated cut-off is given here; in the data, active = GI50 up to about 1.1 µM and inactive = higher.
Known GI50 of a selection of compounds

Sample answers from the record:
[[record]]
compound = "N=C(N)NS(=O)(=O)c1ccc(/N=N/c2c(O)c(C(=O)O)cc3ccccc23)cc1"
target_under_test = "T47D"
assay_readout = "GI50"
experimental_value = "> 100 µM (inactive)"

[[record]]
compound = "Cn1c(=O)cc(NCc2ccc(Cl)cc2)[nH]c1=O"
target_under_test = "T47D"
assay_readout = "GI50"
experimental_value = "91.2 µM (inactive)"

[[record]]
compound = "O=c1[nH]nc(Nc2ccccc2)c2nnn(Cc3ccccc3)c12"
target_under_test = "T47D"
assay_readout = "GI50"
experimental_value = "> 100 µM (inactive)"

[[record]]
compound = "O=C1COc2ccc([N+](=O)[O-])cc2C(=O)C1"
target_under_test = "T47D"
assay_readout = "GI50"
experimental_value = "> 10 µM (inactive)"


Qu. Output measured GI50 for this item: COc1cc2c(cc1OC)C(CCN)=NCC2
Ans. 8.32 µM (inactive)

Qu. Output measured GI50 for this item: O=[N+]([O-])c1ccc(Cl)cc1-n1nc(-c2ccccc2)cc1-c1ccccc1
Ans. 22.3 µM (inactive)

Qu. Output measured GI50 for this item: C=C1C(=O)C23CC1CCC2C12CO[C@H](O)[C@H]1C(C)(C)[C@H](OC(C)=O)C[C@H]2OC3=O (stereo partly specified)
Ans. 19.7 µM (inactive)

Qu. Output measured GI50 for this item: CCCCCCCCCCCCCCCC(=O)OC(COC(C)=O)CO[PH](=O)O (stereo unspecified)
Ans. 53.2 µM (inactive)

----------
- System: A549
- Experimental details: NCI tumour cell line growth inhibition, 48 h
Activity calls are given as the source filed them. Cut-off read from the data, not from the text of the source: active = GI50 up to about 1.1 µM and inactive = higher.
Outcome field: choose from active, inactive

[[record]]
compound = "CC(=O)C1=CC=C/C1=N\\Nc1ccccc1"
answer_label = "inactive"

[[record]]
compound = "CN/C(=N\\CCSCc1nc[nH]c1C)NC#N"
answer_label = "inactive"

[[record]]
compound = "CN(C)CCCOc1ccc(/C=C2/CCC/C(=C/c3ccc(OCCCN(C)C)cc3)C2=O)cc1"
answer_label = "inactive"

[[record]]
compound = "COc1cc2c(cc1OC)C(CCN)=NCC2"
answer_label = "inactive"

[[record]]
compound = "CC(=O)c1ccc(/N=N/c2ccc3nonc3c2N)cc1"
answer_label = "inactive"


Qu. Hey, what did the test say about COC(=O)Nc1nc2cc(C(=O)c3cccs3)ccc2[nH]1 ?
Ans. active

Qu. Hey, what did the test say about O=C1/C(=C\c2ccc(Cl)cc2Cl)Sc2scc(-c3cccc([N+](=O)[O-])c3)[n+]21 ?
Ans. inactive

Qu. Hey, what did the test say about COc1ccc(OC)c(C2Cc3cnc4nc(N)nc(N)c4c3C2)c1 (stereo unspecified) ?
Ans. inactive

Qu. Hey, what did the test say about CC1C/C(=N\N(C)C)C(C#N)(C#N)C1(C#N)C#N (stereo unspecified) ?
Ans. inactive

Qu. Hey, what did the test say about CNC(=O)c1nc[nH]c1/N=N/N(C)N ?
Ans. inactive

Qu. Hey, what did the test say about C[Si](C)(OCCS(=O)(=O)O)C1(Cc2cccc3ccccc23)S(=O)(=O)OCCOS1(=O)=O ?
Ans. inactive

Qu. Hey, what did the test say about CSc1nc(SC)c2c(C)cn(Cc3ccccc3)c2n1 ?
Ans. inactive

Qu. Hey, what did the test say about C=CC(c1ccccc1)C1(O)c2cccc(O)c2C(=O)c2c(O)cccc21 (stereo unspecified) ?
Ans. inactive

Qu. Hey, what did the test say about Nc1nc2c(c(=O)[nH]1)C(c1ccccc1)CC(=O)N2 (stereo unspecified) ?
Ans. inactive

Qu. Hey, what did the test say about CN1CCc2cc3c4cc2C1Cc1ccc(cc1)Oc1cc(ccc1O)CC1c2c(cc(O)c(c2O4)O3)CCN1C (stereo unspecified) ?
Ans. inactive
